subject_of_test: tetanus neurotoxin (TeNT), authentic tetanus holotoxin (Clostridium tetani, UniProt P04958 2-1315)
Sequence (P04958 2-457 limits assumed, chain 1 of 2): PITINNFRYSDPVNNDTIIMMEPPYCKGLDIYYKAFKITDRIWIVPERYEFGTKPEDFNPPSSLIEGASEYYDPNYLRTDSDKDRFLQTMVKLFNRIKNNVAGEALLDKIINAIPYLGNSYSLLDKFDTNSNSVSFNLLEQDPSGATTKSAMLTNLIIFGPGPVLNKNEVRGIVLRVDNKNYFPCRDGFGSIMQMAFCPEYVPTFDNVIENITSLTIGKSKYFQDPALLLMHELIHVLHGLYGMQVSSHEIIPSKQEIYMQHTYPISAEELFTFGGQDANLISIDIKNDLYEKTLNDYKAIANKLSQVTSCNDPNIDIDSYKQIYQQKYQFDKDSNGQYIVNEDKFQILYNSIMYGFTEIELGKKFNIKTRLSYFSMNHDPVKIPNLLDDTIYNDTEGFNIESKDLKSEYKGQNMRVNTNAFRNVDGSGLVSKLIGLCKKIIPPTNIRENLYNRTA
Sequence (P04958 458-1315 limits assumed, chain 2 of 2): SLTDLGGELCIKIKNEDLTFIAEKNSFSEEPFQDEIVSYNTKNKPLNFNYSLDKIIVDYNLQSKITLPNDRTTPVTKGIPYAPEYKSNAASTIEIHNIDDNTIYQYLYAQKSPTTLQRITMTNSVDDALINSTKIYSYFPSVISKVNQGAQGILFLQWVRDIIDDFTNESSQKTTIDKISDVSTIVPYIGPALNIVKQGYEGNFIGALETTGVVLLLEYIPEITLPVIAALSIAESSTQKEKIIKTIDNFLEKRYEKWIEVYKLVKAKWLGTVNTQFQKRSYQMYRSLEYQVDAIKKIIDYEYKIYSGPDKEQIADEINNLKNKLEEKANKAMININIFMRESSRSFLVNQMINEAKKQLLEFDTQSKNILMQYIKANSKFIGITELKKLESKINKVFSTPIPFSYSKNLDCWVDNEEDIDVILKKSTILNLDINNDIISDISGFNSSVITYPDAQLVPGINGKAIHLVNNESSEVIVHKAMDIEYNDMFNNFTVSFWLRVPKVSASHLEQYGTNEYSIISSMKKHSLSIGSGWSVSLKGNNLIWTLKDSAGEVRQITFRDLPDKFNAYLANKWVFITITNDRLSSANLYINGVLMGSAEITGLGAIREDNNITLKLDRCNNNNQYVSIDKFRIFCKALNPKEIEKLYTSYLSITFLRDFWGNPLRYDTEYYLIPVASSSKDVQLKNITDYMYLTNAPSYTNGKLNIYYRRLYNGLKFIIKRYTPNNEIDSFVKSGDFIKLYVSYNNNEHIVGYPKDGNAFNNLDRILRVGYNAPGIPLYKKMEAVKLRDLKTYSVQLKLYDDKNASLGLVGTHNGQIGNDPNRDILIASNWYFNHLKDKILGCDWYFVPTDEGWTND
test_protocol: ELISA: directly coated TeNT, anti-his6 PO
Give maximal absorbance value for every item shown.
Give bare numbers, in A450.

binder="SVT06L (VHH) VHH: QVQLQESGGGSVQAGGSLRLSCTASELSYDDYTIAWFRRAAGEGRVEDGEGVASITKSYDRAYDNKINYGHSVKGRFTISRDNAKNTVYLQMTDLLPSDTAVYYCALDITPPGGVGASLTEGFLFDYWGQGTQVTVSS" assay_metric="maximal absorbance value" result_value=1.44
binder="SVT02-GS2-SVG13M4-H6 (bispecific antibody) QVQLQQSGGGSVQAGGSLRLSCVGPQRTFSTYGMGWFRQAPGKEREFVAGINYKGDTTYYADSVKGRFTISRDNAKNTLYLQMDSLKPEDRAVYQCARKGGLGGDYRDAGQYRYWGQGTQVTVSSGGGGSGGGSEVQLVESGGGLVQPGGSLRLSCEASGFTFDDYGMSWVRQAPGKGLEWVSSLTPNGGSTYYADSVKGRFTISRDNAKNTLYLQMNSLKPEDTALYYCAKNSYYGAMDYWGQGTQVTVSSHHHHHH" assay_metric="maximal absorbance value" result_value=0.06

Could you now consider this next binder?
Which maximal absorbance value value belongs to SVT15L-3FW4M (VHH) VHH: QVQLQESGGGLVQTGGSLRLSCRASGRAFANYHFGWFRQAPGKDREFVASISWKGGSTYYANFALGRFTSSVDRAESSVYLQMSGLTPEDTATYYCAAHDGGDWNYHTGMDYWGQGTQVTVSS ?
0.19
